- protocol: stability of the synthetic peptides in human plasma
- Type: in vitro ADME
- appliedConditions: male, 37° C., peptide 100 μM, read-out: Half-Time of the synthetic peptides in plasma
Non-standard residues stand in square brackets, D forms with d. Residues, ends and D or L forms follow the SMILES beside them. *: point of attachment. pGlu = O=C1CC[C@@H](C(=O)O)N1; Pip = O=C(O)[C@@H]1CCCCN1; X2 = O=C(c1cc(O)nc(O)n1)*; Aze = O=C(O)[C@@H]1CCN1
parameterMeasured: half-life at 100 μM

• N=C(N)NCCC[C@H](NC(=O)[C@H](CO)NC(=O)[C@@H]1CCN1)C(=O)NCC(=O)N[C@@H](CC(=O)O)C(=O)N[C@@H](Cc1c[nH]c2ccccc12)C(=O)O [Example 17] (H-[Aze]SRGDW-OH) = 49 min
• N=C(N)NCCC[C@H](NC(=O)[C@H](CO)NC(=O)[C@@H]1CCCCN1)C(=O)NCC(=O)N[C@@H](CC(=O)O)C(=O)N[C@@H](Cc1c[nH]c2ccccc12)C(=O)O [Example 18] (H-[Pip]SRGDW-OH) = ≥ 120 min
• N=C(N)NCCC[C@H](NC(=O)[C@H](CO)NC(=O)[C@@H]1CCC(=O)N1)C(=O)NCC(=O)N[C@@H](CC(=O)O)C(=O)N[C@@H](Cc1c[nH]c2ccccc12)C(=O)O [Example 11] ([pGlu]SRGDW-OH) = ≥ 240 min
• N=C(N)NCCC[C@H](NC(=O)[C@H](CO)NC(=O)c1cc(O)nc(O)n1)C(=O)NCC(=O)N[C@@H](CC(=O)O)C(=O)N[C@@H](Cc1c[nH]c2ccccc12)C(=O)O [Example 9, Orotyl--Ser--Arg--Gly--Asp--Trp--OH] (X2-SRGDW-OH) = ≥ 240 min

====

- protocol: in vivo
- Parameters: species or system MCH (ICR) strain mice
- appliedConditions: male, MCH (ICR), mouse, iv, Half-Time of the synthetic peptides in mice
Non-standard residues stand in square brackets, D forms with d. Residues, ends and D or L forms follow the SMILES beside them. *: point of attachment. Pip = O=C(O)[C@@H]1CCCCN1; X2 = O=C(c1cc(O)nc(O)n1)*; Aze = O=C(O)[C@@H]1CCN1
parameterMeasured: half-life

* N=C(N)NCCC[C@H](NC(=O)[C@H](CO)NC(=O)c1cc(O)nc(O)n1)C(=O)NCC(=O)N[C@@H](CC(=O)O)C(=O)N[C@@H](Cc1c[nH]c2ccccc12)C(=O)O [Example 9, Orotyl--Ser--Arg--Gly--Asp--Trp--OH] (X2-SRGDW-OH) | 10.1 min
* N=C(N)NCCC[C@H](NC(=O)[C@H](CO)NC(=O)[C@@H]1CCN1)C(=O)NCC(=O)N[C@@H](CC(=O)O)C(=O)N[C@@H](Cc1c[nH]c2ccccc12)C(=O)O [Example 17] (H-[Aze]SRGDW-OH) | 3.3 min
* N=C(N)NCCC[C@H](NC(=O)[C@H](CO)NC(=O)[C@@H]1CCCCN1)C(=O)NCC(=O)N[C@@H](CC(=O)O)C(=O)N[C@@H](Cc1c[nH]c2ccccc12)C(=O)O [Example 18] (H-[Pip]SRGDW-OH) | 3.3 min

====

# key: entry, value: half-life
- protocol: in vivo
- Parameters: species or system MCH (ICR) strain mice
- appliedConditions: male, MCH (ICR), mouse, iv, Half-Time of the synthetic peptides in mice
No end group written: not given here.
parameterMeasured: half-life

- PSRGDW-OH [Example 16, Pro--Ser--Arg--Gly--Asp--Trp--OH]: ≤ 2 min
- WSRGDW-OH [Example 1, Trp--Ser--Arg--Gly--Asp--Trp--OH]: ≤ 2 min
